Tested on: lymphocytes
experimentSummary: aberrant enzyme activities in febrile children, lymphocytes (Table 7)
Assay type: cell-based, human
testParameters: P96 Viral Syndrome

- molecule: "C[C@H](NC(=O)[C@@H](N)CCCCN)C(=O)Nc1ccc2c(c1)Oc1cc(NC(=O)[C@H](C)NC(=O)[C@@H](N)CCCCN)ccc1C21OC(=O)c2ccccc21 [KA, (Lys-Ala)2 Rho 110]"
  aberrant enzyme activity, LYMPHS: ".smallcircle."

----------
Test system: lymphocytes
experimentSummary: peptidase activity in leukemia and non-leukemia patients, lymphocytes (Table 6C)
Assay type: cell-based, human
Set-up: unit not given here
testParameters: J4 12/3/91 acute leuk.
observedProperty: enzyme activity, Lymphs

- compound: "O=C1OC2(c3ccc(NC(=O)[C@@H]4CCCN4)cc3Oc3cc(NC(=O)[C@@H]4CCCN4)ccc32)c2ccccc21 [PRO, (H-L-Pro)2 --Rho 110 .2TFA]"
  tgt: "lymphocytes"
  measuredValue: 0.24
- compound: "C[C@H](N)C(=O)Nc1ccc2c(c1)Oc1cc(NC(=O)[C@H](C)N)ccc1C21OC(=O)c2ccccc21"
  tgt: "lymphocytes"
  measuredValue: 74.64
- compound: "CC(C)C[C@H](N)C(=O)NCC(=O)Nc1ccc2c(c1)Oc1cc(NC(=O)CNC(=O)[C@@H](N)CC(C)C)ccc1C21OC(=O)c2ccccc21"
  tgt: "lymphocytes"
  measuredValue: 0.19
